# TESTED_TARGET: human serum albumin (human) (UniProt P02768)
# Sequence (P02768 25-609 limits assumed): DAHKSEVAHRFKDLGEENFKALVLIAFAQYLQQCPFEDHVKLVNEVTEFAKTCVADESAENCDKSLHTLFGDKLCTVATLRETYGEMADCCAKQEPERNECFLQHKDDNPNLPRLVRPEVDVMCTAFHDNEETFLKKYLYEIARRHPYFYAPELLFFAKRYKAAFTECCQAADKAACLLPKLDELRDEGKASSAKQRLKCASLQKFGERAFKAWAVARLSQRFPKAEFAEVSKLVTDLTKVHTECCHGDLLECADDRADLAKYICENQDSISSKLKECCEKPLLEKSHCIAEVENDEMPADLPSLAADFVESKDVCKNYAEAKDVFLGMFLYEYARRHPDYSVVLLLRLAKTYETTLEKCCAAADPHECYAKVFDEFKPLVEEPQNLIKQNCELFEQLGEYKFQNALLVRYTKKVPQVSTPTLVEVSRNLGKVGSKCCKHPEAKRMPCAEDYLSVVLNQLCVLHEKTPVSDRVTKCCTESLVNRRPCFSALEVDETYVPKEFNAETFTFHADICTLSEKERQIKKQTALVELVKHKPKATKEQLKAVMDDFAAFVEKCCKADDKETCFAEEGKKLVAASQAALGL
# PROTOCOL_DESCRIPTION: primary solution ELISA screen
EXPERIMENTAL_READOUT: RLU (RLU)

These recorded examples may help you get a feel for the data.
BINDER	MEASURE_UNIT	RLU
SEQ ID NO 22 (designed binder, not shown: small tags and cut ends) MLPAPKNLVVSRVTEDSARLSWTAPDAAFDSFWYLELQFAGEAIVLTVPGSERSYDLTGLKPGTEYNVPITGVKGGIISFPLSAIFTT	RLU	30000
SEQ ID NO 75 (designed binder, not shown: small tags and cut ends) MLPAPKNLVVSRVTEDSARLSWTAPDAAFDSFTISYGEEALIGEAIYLRVPGSERSYDLTGLKPGTEYYVHIEGVKGGSWSQPLAAAFTT	RLU	3700
SEQ ID NO 57 (designed binder, not shown: small tags and cut ends) MLPAPKNLVVSRVTEDSARLSWTAPDAAFDSFAIPYAELSRNGEAIVLTVPGSERSYDLTGLKPGTEYTVLIHGVKGGCLSDPLSAIFTT	RLU	38800

a. SEQ ID NO 39 (designed binder, not shown: small tags and cut ends) MLPAPKNLVVSRVTEDSARLSWTAPDAAFDSFPIPYTEPPDPGEAIVLTVPGSERSYDLTGLKPGTEYLVTILGVKGGSMSVPLSAIFTT
b. SEQ ID NO 73 (designed binder, not shown: small tags and cut ends) MLPAPKNLVVSEVTEDSARLSWQGVARAFDSFLITYREQIFAGEVIVLTVPGSERSYDLTGLKPGTEYPVWIQGVKGGSPSAPLSAESTT
Input: Higher RLU: a or b ? Your choice should be expressed through its label.
Output: a
(a: 51100 RLU, b: 20200 RLU)
